These measurements were taken from ChEMBL document CHEMBL4308835.

# EXPERIMENTAL TARGET: UniProtKB Q96NT5
# Sequence (whole entry): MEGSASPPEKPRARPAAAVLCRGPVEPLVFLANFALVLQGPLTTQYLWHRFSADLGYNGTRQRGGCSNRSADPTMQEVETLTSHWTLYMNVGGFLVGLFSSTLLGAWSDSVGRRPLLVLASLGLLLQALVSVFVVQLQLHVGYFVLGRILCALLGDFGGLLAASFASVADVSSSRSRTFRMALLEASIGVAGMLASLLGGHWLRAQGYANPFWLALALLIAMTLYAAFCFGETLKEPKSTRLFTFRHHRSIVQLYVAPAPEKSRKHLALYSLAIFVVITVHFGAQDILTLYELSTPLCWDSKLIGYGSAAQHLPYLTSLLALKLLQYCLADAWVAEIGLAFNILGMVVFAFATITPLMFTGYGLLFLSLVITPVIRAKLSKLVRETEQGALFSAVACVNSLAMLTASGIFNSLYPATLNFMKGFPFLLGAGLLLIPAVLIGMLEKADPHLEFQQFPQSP
# EXPERIMENT NOTES: Inhibition of human PCFT expressed in Chinese hamster R2/PCFT4 cells assessed as reduction in [3H]MTX uptake at pH 5.5 at 1 uM measured over 2 mins relative to control
# Format: cell-based
Activity calls are given as the source filed them. The calls are words filed in the database; no cut-off is given here.
RECORDED ENDPOINT: inhibition

Some molecules with recorded inhibition:
{"CPD SMILES": "Nc1nc2[nH]c(CCCCc3ccc(C(=O)N[C@@H](CCC(=O)O)C(=O)O)nc3)cc2c(=O)[nH]1", "EXPERIMENTAL TARGET": "UniProtKB Q96NT5", "inhibition": "Active"}
{"CPD SMILES": "Nc1nc2[nH]c(CCCc3csc(C(=O)N[C@@H](CCC(=O)O)C(=O)O)c3)cc2c(=O)[nH]1", "EXPERIMENTAL TARGET": "UniProtKB Q96NT5", "inhibition": "Active"}
{"CPD SMILES": "Nc1nc2[nH]c(CCCCc3csc(C(=O)N[C@@H](CCC(=O)O)C(=O)O)c3)cc2c(=O)[nH]1", "EXPERIMENTAL TARGET": "UniProtKB Q96NT5", "inhibition": "Active"}
{"CPD SMILES": "Nc1nc2[nH]c(CCCCc3cnc(C(=O)N[C@@H](CCC(=O)O)C(=O)O)c(F)c3)cc2c(=O)[nH]1", "EXPERIMENTAL TARGET": "UniProtKB Q96NT5", "inhibition": "60 to 85%"}

**Q:** So what's the measured inhibition for this one? "Nc1nc2[nH]c(CCCc3ccc(C(=O)N[C@@H](CCC(=O)O)C(=O)O)cc3)cc2c(=O)[nH]1"
**A:** Active

**Q:** GET /values?readout=inhibition&item= "Nc1nc2[nH]c(CCCc3csc(C(=O)N[C@@H](CCC(=O)O)C(=O)O)c3F)cc2c(=O)[nH]1"
**A:** 60 to 85%
